Target: Histone deacetylase 1 (Homo sapiens, UniProt Q13547)
Sequence (Q13547 whole entry): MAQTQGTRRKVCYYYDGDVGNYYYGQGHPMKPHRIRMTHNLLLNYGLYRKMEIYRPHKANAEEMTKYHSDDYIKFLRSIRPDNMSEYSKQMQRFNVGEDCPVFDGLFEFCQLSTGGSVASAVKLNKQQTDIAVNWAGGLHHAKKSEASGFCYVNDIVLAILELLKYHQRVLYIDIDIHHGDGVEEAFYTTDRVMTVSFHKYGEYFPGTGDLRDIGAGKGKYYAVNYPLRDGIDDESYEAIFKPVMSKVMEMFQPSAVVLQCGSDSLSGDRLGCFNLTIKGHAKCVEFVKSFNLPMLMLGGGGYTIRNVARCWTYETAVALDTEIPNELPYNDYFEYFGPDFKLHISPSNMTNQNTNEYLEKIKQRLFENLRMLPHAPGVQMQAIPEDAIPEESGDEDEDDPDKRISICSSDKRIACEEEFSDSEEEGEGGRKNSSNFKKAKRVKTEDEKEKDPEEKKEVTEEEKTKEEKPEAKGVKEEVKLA
Test: Inhibition of HDAC1 (unknown origin)
Measurement type: IC50 (nM)
Numbers only, in nM.

The measured IC50 associated with O=C(CCCCCCC(=O)Nc1cc(C(F)(F)F)ccc1Cl)NO reads 120

---

Test system: U-87 MG
Assay: Antiproliferative activity against human U87 cells assessed as reduction in cell growth incubated for 72 hrs by MTT assay
Format: functional, cell-based, U-87MG ATCC
Measurement type: pIC50
Answers are plain numbers, as −log10 of the molar value.

The measured pIC50 associated with COc1cc(/C=C/C(=O)CC(=O)/C=C/c2ccc(/C=C/C(=O)NO)cc2)ccc1O reads 5.56

---

Provide the recorded Kp for the entries that follow.
Assay: Brain to plasma ratio in rat
Assay type: ADME
Conditions: read-out: BPR
Give bare numbers.

Molecule: CN1CCC2c3ccccc3N(Cc3ccc(C(=O)NO)cc3)C2C1 (configuration not stated)
Kp: 0.18

Please find the next molecule below.
The measured Kp associated with O=C(NO)c1ccc(CN2CCCSc3ccccc32)cc1 reads 2.3

---

Target: Protein deacetylase HDAC6 (Homo sapiens)
Sequence (Q9UBN7 whole entry): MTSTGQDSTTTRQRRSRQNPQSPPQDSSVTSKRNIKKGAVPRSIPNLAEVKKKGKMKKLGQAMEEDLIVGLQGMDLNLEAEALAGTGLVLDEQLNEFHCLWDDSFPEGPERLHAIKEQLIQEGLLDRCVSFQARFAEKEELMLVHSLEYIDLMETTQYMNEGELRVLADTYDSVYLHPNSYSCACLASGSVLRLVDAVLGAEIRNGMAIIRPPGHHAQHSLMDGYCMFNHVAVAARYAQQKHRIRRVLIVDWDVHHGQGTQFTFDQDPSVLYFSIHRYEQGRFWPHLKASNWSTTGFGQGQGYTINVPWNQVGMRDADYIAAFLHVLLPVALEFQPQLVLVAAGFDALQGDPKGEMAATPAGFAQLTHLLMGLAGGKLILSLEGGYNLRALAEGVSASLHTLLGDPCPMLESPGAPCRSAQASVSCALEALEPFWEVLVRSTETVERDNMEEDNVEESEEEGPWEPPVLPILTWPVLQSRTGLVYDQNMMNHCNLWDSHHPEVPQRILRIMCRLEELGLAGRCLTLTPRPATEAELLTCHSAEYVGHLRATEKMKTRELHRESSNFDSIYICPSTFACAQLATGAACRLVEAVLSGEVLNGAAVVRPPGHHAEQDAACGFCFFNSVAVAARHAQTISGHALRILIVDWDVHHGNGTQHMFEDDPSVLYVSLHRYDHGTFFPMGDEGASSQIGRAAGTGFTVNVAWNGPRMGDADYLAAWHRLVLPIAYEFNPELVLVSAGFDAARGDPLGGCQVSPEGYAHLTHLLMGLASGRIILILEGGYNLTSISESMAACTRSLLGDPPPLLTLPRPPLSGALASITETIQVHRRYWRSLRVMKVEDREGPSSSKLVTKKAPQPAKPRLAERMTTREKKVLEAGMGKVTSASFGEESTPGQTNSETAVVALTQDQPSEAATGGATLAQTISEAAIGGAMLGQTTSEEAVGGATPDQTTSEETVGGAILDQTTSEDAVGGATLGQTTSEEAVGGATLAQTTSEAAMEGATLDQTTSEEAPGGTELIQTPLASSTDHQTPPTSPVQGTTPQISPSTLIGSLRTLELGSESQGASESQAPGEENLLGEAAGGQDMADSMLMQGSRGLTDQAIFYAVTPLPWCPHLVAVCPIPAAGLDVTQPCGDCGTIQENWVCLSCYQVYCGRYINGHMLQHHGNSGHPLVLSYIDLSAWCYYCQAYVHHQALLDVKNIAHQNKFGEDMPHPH
Assay: Inhibition of N-terminal FLAG-tagged full length human recombinant HDAC6 expressed in baculovirus
Measurement type: IC50
Write down the value, and be sure its unit follows.

The molecule COc1cc(-c2nc(C(=O)NCc3ccc(C(=O)NO)cc3)cc3c2[nH]c2ccccc23)cc(OC)c1OC on Protein deacetylase HDAC6 (Homo sapiens): IC50 was 3.8 nM

---

Target: Histone deacetylase 8 (Homo sapiens, UniProt Q9BY41)
Sequence (Q9BY41 whole entry): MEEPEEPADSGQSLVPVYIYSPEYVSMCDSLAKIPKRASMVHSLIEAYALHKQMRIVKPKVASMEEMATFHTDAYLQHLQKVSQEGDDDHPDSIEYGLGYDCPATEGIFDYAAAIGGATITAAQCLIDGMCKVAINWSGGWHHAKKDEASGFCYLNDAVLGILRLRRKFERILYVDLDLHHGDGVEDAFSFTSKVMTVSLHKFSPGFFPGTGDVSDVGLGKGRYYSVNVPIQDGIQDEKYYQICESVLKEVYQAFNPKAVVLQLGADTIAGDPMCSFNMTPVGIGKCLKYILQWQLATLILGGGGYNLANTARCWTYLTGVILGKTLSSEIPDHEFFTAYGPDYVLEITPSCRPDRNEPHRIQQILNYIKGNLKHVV
Test: Inhibition of C-terminal FLAG-tagged full length human recombinant HDAC8 expressed in baculovirus
Measurement type: IC50

The measured IC50 associated with COc1cc(-c2nc(C(=O)NCc3ccc(C(=O)NO)cc3)cc3c2[nH]c2ccccc23)cc(OC)c1OC reads > 559 nM

---

Biological target: Histone deacetylase 4 (Homo sapiens)
Assay: Inhibition of human recombinant HDAC4 (645 to 1057 residues) expressed in Escherichia coli
pIC50: −log10 of the molar value.
Measurement type: pIC50

The measured pIC50 associated with COc1cc(-c2nc(C(=O)NCc3ccc(C(=O)NO)cc3)cc3c2[nH]c2ccccc23)cc(OC)c1OC reads < 6.25
